test.system: human ether-à-go-go-related gene (hERG) potassium channel (human)
procedure.summary: primary screen, population patch clamp on CHO cells stably expressing hERG; higher = less effect of the substance
About 2,200 (0.71%) of roughly 310,000 compounds showed an effect of 50% or more. The effect is printed as a negative number. This is one part of a sample in which strong results are shown more often than they occur.
measured.quantity: hERG current change (%, negative = inhibition) at 1uM (%)
Record the value in %, omitting the unit from your answer.

Study these solved cases before continuing.
{"columns": ["compound", "endpoint.unit", "readout.number"],
 "data": [
  ["CCOC(=O)c1ccccc1NC(=O)[C@@H]1CCCN1C(=O)OC(C)(C)C", "%", 3.14],
  ["CCCNC(=O)COc1coc(CN2CCN(Cc3ccccc3)CC2)cc1=O", "%", 15.2],
  ["COc1ccc2c(c1)c1c(n2C(C)=O)C(OC(C)=O)=NCC1", "%", 2.42]
]}

Name the reported hERG current change (%, negative = inhibition) at 1uM value associated with the compound CC(Sc1ccc(Cl)cc1)C(=O)Nc1ccccc1-c1ccccc1 (stereo not shown)
17.4

----------
test.system: human ether-à-go-go-related gene (hERG) potassium channel (human, UniProt Q12809)
Sequence (Q12809 whole entry, looked up): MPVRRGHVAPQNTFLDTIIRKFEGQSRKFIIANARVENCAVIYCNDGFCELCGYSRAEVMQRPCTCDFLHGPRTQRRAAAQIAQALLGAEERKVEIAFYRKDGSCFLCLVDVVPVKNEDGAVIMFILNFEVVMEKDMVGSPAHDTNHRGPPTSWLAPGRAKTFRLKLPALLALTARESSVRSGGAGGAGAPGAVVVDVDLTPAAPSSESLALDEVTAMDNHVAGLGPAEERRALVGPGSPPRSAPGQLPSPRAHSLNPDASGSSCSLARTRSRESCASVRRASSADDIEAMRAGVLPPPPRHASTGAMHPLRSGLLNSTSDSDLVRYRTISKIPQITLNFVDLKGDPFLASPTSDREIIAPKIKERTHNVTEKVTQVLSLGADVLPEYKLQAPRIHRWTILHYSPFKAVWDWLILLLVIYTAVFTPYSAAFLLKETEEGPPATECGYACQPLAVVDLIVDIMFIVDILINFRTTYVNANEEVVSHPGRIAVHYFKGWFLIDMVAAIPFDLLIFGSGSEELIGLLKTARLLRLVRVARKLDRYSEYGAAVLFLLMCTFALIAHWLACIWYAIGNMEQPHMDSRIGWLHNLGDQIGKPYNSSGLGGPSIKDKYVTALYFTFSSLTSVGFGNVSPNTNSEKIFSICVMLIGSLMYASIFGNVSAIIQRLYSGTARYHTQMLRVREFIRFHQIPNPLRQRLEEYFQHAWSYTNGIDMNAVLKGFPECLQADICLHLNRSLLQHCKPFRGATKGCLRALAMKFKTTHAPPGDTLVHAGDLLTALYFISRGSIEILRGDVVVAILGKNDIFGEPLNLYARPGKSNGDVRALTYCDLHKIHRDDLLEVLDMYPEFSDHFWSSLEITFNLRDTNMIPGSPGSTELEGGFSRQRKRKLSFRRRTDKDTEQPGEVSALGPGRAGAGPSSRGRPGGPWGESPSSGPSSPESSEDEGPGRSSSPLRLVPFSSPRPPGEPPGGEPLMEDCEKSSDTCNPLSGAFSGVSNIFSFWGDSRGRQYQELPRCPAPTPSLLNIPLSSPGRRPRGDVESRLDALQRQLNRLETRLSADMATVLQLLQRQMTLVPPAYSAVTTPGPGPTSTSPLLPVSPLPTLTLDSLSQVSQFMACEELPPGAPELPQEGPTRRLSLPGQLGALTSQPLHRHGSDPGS
procedure.summary: primary screen, population patch clamp on CHO cells stably expressing hERG; higher = less effect of the substance
Among all 310,000 compounds or so, about 2,200 (0.71%) showed an effect of 50% or more. The effect is printed as a negative number. The sample holds strong results, similar compounds and a random draw of the others, so the mix is not that of the screen.
measured.quantity: hERG current change (%, negative = inhibition) at 1uM
Remember to put the unit after the number in your answer.

{"columns": ["molecule", "result"],
 "data": [
  ["O=C1NC2(CCCCC2)C(=O)N1Cc1cc(=O)n2ccsc2n1", "6.06%"]
]}

Lookup: hERG current change (%, negative = inhibition) at 1uM / human ether-à-go-go-related gene (hERG) potassium channel (human, UniProt Q12809) / "Cc1ccc(Nc2nc(N)nc(CN3CCc4ccccc4C3)n2)cc1"
-31.5%

Lookup: hERG current change (%, negative = inhibition) at 1uM / human ether-à-go-go-related gene (hERG) potassium channel (human, UniProt Q12809) / CC1CC(C)CN(Cc2nc(N)nc(Nc3ccccc3)n2)C1 (stereo not drawn)
-52.3%

Lookup: hERG current change (%, negative = inhibition) at 1uM / human ether-à-go-go-related gene (hERG) potassium channel (human, UniProt Q12809) / "COC(=O)c1sccc1-n1cccc1C(=O)N1CCOCC1"
-11.6%

Lookup: hERG current change (%, negative = inhibition) at 1uM / human ether-à-go-go-related gene (hERG) potassium channel (human, UniProt Q12809) / Cc1cc(C(=O)NC2CCCc3c2cnn3-c2ccc(C(C)(C)C)cc2)nn1C (stereo not drawn)
16.5%

Lookup: hERG current change (%, negative = inhibition) at 1uM / human ether-à-go-go-related gene (hERG) potassium channel (human, UniProt Q12809) / "COC(=O)c1sccc1-n1cccc1C(=O)C(=O)N1CCOCC1"
-87.6%

----------
test.system: human ether-à-go-go-related gene (hERG) potassium channel (human)
procedure.summary: primary screen, population patch clamp on CHO cells stably expressing hERG; higher = less effect of the substance
Among all 310,000 compounds or so, about 2,200 (0.71%) showed an effect of 50% or more. Effects have a minus sign here. The entries come from a sample that favours strong results as a whole.
Listing: hERG current change (%, negative = inhibition) at 1uM of selected compounds
Record the value in %, omitting the unit from your answer.

{"columns": ["compound", "test.system", "endpoint.unit", "readout.number"],
 "data": [
  ["COCc1cc(CN2CCN(Cc3ccsc3)C(CCO)C2)ccc1OC (centres unmarked)", "human ether-à-go-go-related gene (hERG) potassium channel (human)", "%", -56.6]
]}

Then this compound:
Name the reported hERG current change (%, negative = inhibition) at 1uM value associated with the compound O=C(NCc1ccco1)C1CCCN(S(=O)(=O)c2cc(Cl)ccc2Cl)C1 (centres unmarked)
2.52

----------
test.system: human ether-à-go-go-related gene (hERG) potassium channel (human)
procedure.summary: primary screen, population patch clamp on CHO cells stably expressing hERG; higher = less effect of the substance
In all, about 310,000 compounds went through this assay and about 2,200 (0.71%) showed an effect of 50% or more. The effect is printed as a negative number. What follows is part of a selection rich in strong results, with near analogues and random picks from the rest.
measured.quantity: hERG current change (%, negative = inhibition) at 1uM
Remember to put the unit after the number in your answer.

{"columns": ["smiles.entry", "test.system", "result"],
 "data": [
  ["COCCCNC(=O)Cn1c(=O)n(CCCCCC(=O)Nc2ccccc2)c(=O)c2sccc21", "human ether-à-go-go-related gene (hERG) potassium channel (human)", "14%"],
  ["COc1nc2ccccc2c(=O)n1-c1ccc(C)cc1", "human ether-à-go-go-related gene (hERG) potassium channel (human)", "7.4%"],
  ["O=C(COc1ccc(-n2ccnc2)cc1)Nc1cccc(F)c1", "human ether-à-go-go-related gene (hERG) potassium channel (human)", "-13%"]
]}

Then this molecule:
Name the reported hERG current change (%, negative = inhibition) at 1uM value associated with the molecule "CCN(CC(=O)Nc1ccc(OC(F)F)cc1)C1CCCCC1"
-61.6%

----------
test.system: human ether-à-go-go-related gene (hERG) potassium channel (human)
procedure.summary: primary screen, population patch clamp on CHO cells stably expressing hERG; higher = less effect of the substance
Hit rate of the full screen: of about 310,000 compounds, about 2,200 (0.71%) showed an effect of 50% or more. Effects have a minus sign here. The entries come from a sample that favours strong results as a whole.
measured.quantity: hERG current change (%, negative = inhibition) at 1uM (%)
Record the value in %, omitting the unit from your answer.

{"columns": ["molecule", "readout.number"],
 "data": [
  ["Cc1cccc(C(=O)NC2CC3CCCC(C2)N3S(=O)(=O)c2ccccc2)c1 (centres unmarked)", -63.4],
  ["CC1=C(C(N)=O)C(c2ccc(Br)cc2)n2nc(CCCO)nc2N1 (centres unmarked)", 13.1],
  ["Cc1ccc(NC(=O)COc2ccc(S(=O)(=O)N3CCOCC3)cc2)cc1", 13.6],
  ["CCCN1C2CCCC1CC(NC(=O)c1cccc(Cl)c1)C2 (centres unmarked)", -2.98],
  ["COc1cccc(C(=O)NC2CC3CCC(C2)N3Cc2ccccc2)c1 (centres unmarked)", -2.53],
  ["CCn1cc(C2N3CC4(C)CN2CC(C)(C3)C4=O)c2ccccc21 (centres unmarked)", 4.63]
]}

Name the reported hERG current change (%, negative = inhibition) at 1uM value associated with the molecule CC[C@]12CCCN3CCc4c(n(c5ccccc45)C(=O)C1)C32 (some centres unmarked)
-50.5

Name the reported hERG current change (%, negative = inhibition) at 1uM value associated with the molecule "COC(=O)C1=CN(Cc2ccc(OC)c(OC)c2)C=C(C(=O)OC)C1c1ccc(F)cc1"
4.21

Name the reported hERG current change (%, negative = inhibition) at 1uM value associated with the molecule "O=C(COc1ccc(S(=O)(=O)N2CCOCC2)cc1)Nc1cccc([N+](=O)[O-])c1"
9.62

Name the reported hERG current change (%, negative = inhibition) at 1uM value associated with the molecule COc1cccc(C(=O)NC2CC3CCCC(C2)N3S(=O)(=O)c2ccccc2)c1 (centres unmarked)
-8.93

Name the reported hERG current change (%, negative = inhibition) at 1uM value associated with the molecule "Cc1ccc(S(=O)(=O)Nc2ccc3c(c2)nc(CCN2CCOCC2)n3C)cc1"
6.29

Name the reported hERG current change (%, negative = inhibition) at 1uM value associated with the molecule "Cc1cc(N2CCN(S(=O)(=O)c3ccc(Cl)cc3)CC2)c2ccccc2n1"
-80.8

Name the reported hERG current change (%, negative = inhibition) at 1uM value associated with the molecule "COc1ccc2nc(C)cc(N3CCN(c4ccccc4)CC3)c2c1"
-29

Name the reported hERG current change (%, negative = inhibition) at 1uM value associated with the molecule "COc1ccc2nc(C)cc(N3CCN(S(=O)(=O)c4ccccc4F)CC3)c2c1"
-62.2

Name the reported hERG current change (%, negative = inhibition) at 1uM value associated with the molecule "O=C(Nc1ccncc1)Nc1cccc(Cl)c1"
6.49

Name the reported hERG current change (%, negative = inhibition) at 1uM value associated with the molecule CCCCN1C2CCCC1CC(NC(=O)c1cccc(Cl)c1)C2 (centres unmarked)
-63

Name the reported hERG current change (%, negative = inhibition) at 1uM value associated with the molecule "CC(=O)Nc1ccc(S(=O)(=O)N2CCN(S(=O)(=O)c3ccccc3)CC2)cc1"
10.1

Name the reported hERG current change (%, negative = inhibition) at 1uM value associated with the molecule "CCOC(=O)C1=CC[C@H]2c3c(c4ccccc4n3C)C[C@H]1N2C"
15.5

Name the reported hERG current change (%, negative = inhibition) at 1uM value associated with the molecule "CCCC(=O)Nc1ccc2c(c1)nc(CCN1CCN(c3ccccn3)CC1)n2C"
1.68

Name the reported hERG current change (%, negative = inhibition) at 1uM value associated with the molecule Cc1ccc(S(=O)(=O)NCCC(=O)NC(C)CCc2ccccc2)cc1 (centres unmarked)
-10.7

Name the reported hERG current change (%, negative = inhibition) at 1uM value associated with the molecule "CCOC(=O)C1CCN(CC(=O)c2c(C)[nH]c3cc(C)ccc23)CC1"
-26.8

Name the reported hERG current change (%, negative = inhibition) at 1uM value associated with the molecule "Cl.Cn1c2c(c3ccccc31)CCN1CCC[C@]21c1ccccc1"
12.1

Name the reported hERG current change (%, negative = inhibition) at 1uM value associated with the molecule Cc1cc(NC(=O)CCC(=O)N(c2cccnc2)C(C(=O)NC2CCCC2)c2ccccc2F)no1 (centres unmarked)
8.56

These data points were gathered from paper PMC4336329.
